biological target: human ErbB2, full length, on cells (B300.19/hErbB2 clone #44; MCF7; BT474; SKBR3) (human)
Below, each entry is listed with its recorded % inhibition @36 µg/ml, SKBR3 cell proliferation.
Give just the number in %; leave the unit off.

[in] Give a short answer stating reported % inhibition @36 µg/ml, SKBR3 cell proliferation for monoclonal antibody 1.100.1 (antibody, V domains shown) VH: QLQLQESGPGLVKPSETLSLTCTVSGGFISSSSYYWGWIRQPPGKGLEWIGTIYYSGTTYYNSSLKSRVTISVDTSQNQFSLKLSSVTAADTAVYYCARHHWVFDYWGQGTLVTVSS VL: EVVLTQSPDFQSVTPKEKITITCRASQIIGTSLHWYQKKPDQSPKLLIKYASQSFSGVPSRFSGSGSGTEFTLTINSLEAEDTATYYCHQSTNLPWTFGQGTKVEIK .
[out] 54

[in] Give a short answer stating reported % inhibition @36 µg/ml, SKBR3 cell proliferation for monoclonal antibody 1.20 (antibody, V domains shown) VH: QLQLQESGPGLVKPSETLSLTCTVSGGSISSSNYYWGWIRQPPGKGLEWIGTIYYTGSTYYNPSLKSRVTISVDTSKNQFSLKLSSVTAADTAVYYCARHHWVFDYWGQGTLVTVSS VL: DIQMTQSPSSVSASVGDRVTITCRASQGISSWLAWYQQKPGKAPKLLIYAASSLQSGVPSRFSGSGSGTDFTLTISSLQPEDFATYYCQRTNSFPRTFGQGTKVEIK .
[out] 49

[in] Give a short answer stating reported % inhibition @36 µg/ml, SKBR3 cell proliferation for monoclonal antibody 1.96 (antibody, V domains shown) VH: EVQLVESGGGLVQPGGSLRLSCAASGFTFSSYWMSWVRQAPGKGLEWVANIKQDGSEKYYVDSVKGRFTISRDNAKNSLYLQMNSLRAEDTAVYYCARWGVFGSGSYYIPFDYWGQGTLVTVSS VL: DIQMTQSPSSLSASVGDRVTITCRASHSITRYINWYQQKPGKAPNLLIYAASSLQSGVPSRFSGSGSGTDFTLTISSPQPEDFATYYCQQSYSSPPITFGQGTRLEIK .
[out] 43

[in] Give a short answer stating reported % inhibition @36 µg/ml, SKBR3 cell proliferation for monoclonal antibody 1.18.1 (antibody, V domains shown) VH: QVQLVESGGGVVQPGRSLRLSCAASGFTFSSYGMHWVRQAPGKGLEWVAVIWYDRSNKYYADSVKGRFTISRDNSKNTLYLQMDSLRAEDTAVYYCAGGRSRGAFDYWGQGTLVTVSS VL: DIQMTQSPSSLSASVGDRVTITCRASQGIRNYLAWFQQKPGKAPKSLIYAASSLQSGVPSTFSGSGSGTHFTLTISSLQPEDFASYFCQQYEIYPLTFGGGTKVEIK .
[out] 46

[in] Give a short answer stating reported % inhibition @36 µg/ml, SKBR3 cell proliferation for monoclonal antibody 1.39 (antibody, V domains shown) VH: QLQLQESGPGLVKPSETLSLTCTVSGGSISSSTYYWGWIRQPPGKGLEWIGTIYYSGSTYYNPSLKSRVTISVDTSKNQFSLKLNSVTAADTAVYYCARHHWVFDYWGQGTLVTVSS VL: EIVLTQSPDFLSVTPKEKVTITCRASQIIGSSLHWYQQKPDQSPKLLIKYASQSFSGVPSRFSGSGSGTDFTLTLNSLEAEDAATYYCHQSTILPWTFGQGTKVEIK .
[out] 41

Further cases:
[in] Give a short answer stating reported % inhibition @36 µg/ml, SKBR3 cell proliferation for monoclonal antibody 1.14.1 (antibody, V domains shown) VH: QLQLQESGPGLVKPSETLSLTCTVSGDSISSFIYYWGWIRQPPGKGLEWIGTIYYSGSTYYNPSLKSRVTISVDTSKNQFSLKLRSVTAADTAVYYCARHHWVFDYWGQGTQVTVSS VL: DIVLTQFPDFQSVTPKEKVTITCRASQVIGSSLHWYQQKPDQSPKLLIKYASQSFSGVPSRFSGSGSGTDFTLTINSLEVEDAATYYCHQSTILPWTFGQGTKVEVK .
[out] 52
